tested on: WPMY1-CANX-COX4; assay: phenotypically active (imaging signature differs from DMSO and reproducible) at any of 0.3-9 uM (binary (1 = active, 0 = inactive)); higher = active; settings: treatment time: 24 h
Form entry, call: pick from active, inactive

| compound | category-label |
| --- | --- |
| COc1ncc2cc(C(=O)Nc3cc(C(=O)NCc4cccc(Cl)c4)ccc3Cl)c(=O)[nH]c2n1 | inactive |

Exam item: Answer briefly: the call reported for CCCCOc1c(C(=O)c2c(F)cc(C)cc2F)cnc2[nH]ncc12 in this assay.
Marked response: active

Exam item: Similarly, Cc1c2oc3c(C)ccc(C(=O)NC4C(=O)NC(C(C)C)C(=O)N5CCCC5C(=O)N(C)CC(=O)N(C)C(C(C)C)C(=O)OC4C)c3nc-2c(C(=O)NC2C(=O)NC(C(C)C)C(=O)N3CCCC3C(=O)N(C)CC(=O)N(C)C(C(C)C)C(=O)OC2C)c(N)c1=O (stereo not given) [Actinomycin D] ?
Marked response: active

Exam item: Follow-up item: Cc1[nH]c(=O)c(C#N)cc1-c1ccncc1 [Milrinone]
Marked response: inactive

Exam item: Please answer likewise for O=C(Cn1ccnc1[N+](=O)[O-])NCc1ccccc1 [benznidazole]
Marked response: inactive

----------
tested on: A549-CANX-COX4; assay: phenotypically active (imaging signature differs from DMSO and reproducible) at any of 0.3-9 uM (binary (1 = active, 0 = inactive)); higher = active; settings: treatment time: 24 h
Where a name gives a salt, the structure may show the parent alone.
Choose the fitting class; nothing outside active, inactive is accepted.

Recorded results for 7 compounds are shown here.
| compound | test-system | category-label |
| --- | --- | --- |
| O=c1ncn2nc(Sc3ccc(F)cc3F)ccc2c1-c1c(Cl)cccc1Cl | A549-CANX-COX4 | inactive |
| CC(C)(Sc1ccc(CCN(CCCCC2CCCCC2)C(=O)NC2CCCCC2)cc1)C(=O)O | A549-CANX-COX4 | inactive |
| COc1cc2c(cc1OC)CC(=O)N(CCCN(C)C[C@H]1Cc3cc(OC)c(OC)cc31)CC2 | A549-CANX-COX4 | inactive |
| CO[C@H]1C=CO[C@@]2(C)Oc3c(C)c(O)c4c(O)c(c5c(nc6cc(C)ccn65)c4c3C2=O)NC(=O)C(C)=CC=C[C@H](C)[C@H](O)[C@@H](C)[C@@H](O)[C@@H](C)[C@H](OC(C)=O)[C@@H]1C | A549-CANX-COX4 | inactive |
| C[n+]1cccc(C(=O)O)c1 [Trigonelline hydrochloride] | A549-CANX-COX4 | inactive |
| CCCCC1C(=O)N(c2ccccc2)N(c2ccc(O)cc2)C1=O (stereo not drawn) | A549-CANX-COX4 | inactive |
| O=C(CCCc1ccc(-c2ccccc2F)cc1)Nc1ccc(O)cc1 | A549-CANX-COX4 | active |

Query compound follows.
Exam item: Please let me know the test result on file for CC[C@H](CO)Nc1nc(Nc2cccc(-c3ccccn3)c2)c2ncn(C(C)C)c2n1 [(R)-DRF053 dihydrochloride] .
Marked response: inactive

----------
tested on: WPMY1-TUBA1B-RELA; assay: phenotypically active (imaging signature differs from DMSO and reproducible) at any of 0.3-9 uM (binary (1 = active, 0 = inactive)); higher = active; details: treatment time: 24 h
Counter-ions that a name gives are not always drawn.
Your response should consist of one outcome taken from active, inactive

The examples below pair each entry with its known result.
| compound | category-label |
| --- | --- |
| CC(CCc1ccc(O)cc1)NCCc1ccc(O)c(O)c1 (centres undefined) [Dobutamine hydrochloride] | inactive |
| CCN1CCN(c2cc(-c3ccc(F)cc3)c3c(n2)CCCCCC3)CC1 [blonanserin] | active |
| O=C(O)CCc1ccccc1 [Hydrocinnamic acid] | inactive |
| O=C1/C(=C\c2ccncc2)CCC/C1=C\c1ccncc1 | active |
| Cc1cnc(NC(=O)Nc2cc(Br)c(C)cc2OC[C@@H]2CNCCO2)cn1 | active |

Exam item: Check the results log: what was the call for C[C@@H](c1ncncc1F)[C@](O)(Cn1cncn1)c1ccc(F)cc1F [voriconazole] ?
Marked response: inactive

Exam item: Next entry: CC1(C)O[C@@H]2C[C@H]3[C@@H]4C[C@H](F)C5=CC(=O)CC[C@]5(C)[C@H]4[C@@H](O)C[C@]3(C)[C@]2(C(=O)CO)O1 [flurandrenolide]
Marked response: inactive

Exam item: Next compound: c1ccc2c(c1)CN1CCCC1=N2 [Desoxypeganine Hydrochloride]
Marked response: inactive

Exam item: Same again, this time with Cc1noc(C)c1-c1cc(O)cc(C(O)c2ccccc2)c1 (centres undefined)
Marked response: active

----------
As shown below, each of these compounds has a reported phenotypically active value.
system: WPMY1-TUBA1B-RELA; assay: phenotypically active (imaging signature differs from DMSO and reproducible) at any of 0.3-9 uM (binary (1 = active, 0 = inactive)); higher = active; settings: treatment time: 24 h
The reply should be a number, written without any unit.

Record excerpt, results attached:
| compound | phenotypically active |
| --- | --- |
| O=[N+]([O-])c1cc(Cl)ccc1S(=O)(=O)c1ccccc1 | 0 |
| CCOc1cc(CC(=O)N[C@@H](CC(C)C)c2ccccc2N2CCCCC2)ccc1C(=O)O [repaglinide] | 0 |
| O=C(NCc1ccccn1)Nc1nnc(-c2ccco2)o1 | 0 |
| O=C(CCCCSc1nc(-c2ccc(-c3ccccc3)cc2)cc(=O)[nH]1)NO | 1 |

Let us move to another entry and its phenotypically active.
Exam item: Lab note: need phenotypically active with WPMY1-TUBA1B-RELA for entry COc1ccc([C@@H]2CNC(=O)C2)cc1OC1CCCC1 [(R)-(-)-Rolipram] , please look it up.
Marked response: 0

----------
system: WPMY1-CANX-COX4; experiment: lowest phenotypically active concentration; higher = less potent; conditions: treatment time: 24 h
measurement-name: lowest phenotypically active concentration (µM)
Write the answer as a number in µM, unit excluded.

Answered cases to consult:
| compound | unit-name | measurement |
| --- | --- | --- |
| CCOC(=O)c1ccc(N2NC(=O)/C(=C/c3ccc([N+](=O)[O-])o3)C2=O)cc1 | µM | 9 |
| CC(C)COCC(CN(Cc1ccccc1)c1ccccc1)N1CCCC1 (stereo not given) | µM | 9 |
| CCSc1ccc2c(c1)N(CCCN1CCN(C)CC1)c1ccccc1S2 | µM | 9 |

# input for lookup
Exam item: Could you tell me which lowest phenotypically active concentration is on file for CCn1c(=O)n([C@H]2CCCN(c3nccc(-c4cc5ccccc5o4)n3)C2)c2ccccc21 ?
Marked response: 3

----------
tested on: HepG2-GM130-SQSTM1; test: phenotypically active (imaging signature differs from DMSO and reproducible) at any of 0.3-9 uM (binary (1 = active, 0 = inactive)); higher = active; conditions: treatment time: 24 h
Counter-ions that a name gives are not always drawn.
Each entry below carries its reported phenotypically active.
Lab note: jot the number down without any unit.

| compound | phenotypically active |
| --- | --- |
| Cn1cnc(N)c2ncnc1-2 | 0 |
| O=C(Nc1ccc(CN2CCOCC2)cc1)c1ccc(-c2cccc(Cl)c2)o1 | 0 |
| CC(=O)O[C@H]1C(=O)[C@@]2(C)[C@H]([C@H](OC(=O)c3ccccc3)[C@]3(O)C[C@H](OC(=O)[C@H](O)[C@@H](NC(=O)c4ccccc4)c4ccccc4)C(C)=C1C3(C)C)[C@]1(OC(C)=O)CO[C@@H]1C[C@@H]2O | 1 |

Exam item: Form: Entry = O=C(CCCN1CCC(O)(c2ccc(Cl)cc2)CC1)c1ccc(F)cc1 | System = HepG2-GM130-SQSTM1 | phenotypically active = ____
Marked response: 1

Exam item: Would you kindly repeat that for CN1c2ccccc2C(=O)N2CCc3c([nH]c4ccccc34)[C@H]21 ?
Marked response: 1

Exam item: // next record CCOP(=O)(OCC)C(=Cc1cc(C(C)(C)C)c(O)c(C(C)(C)C)c1)P(=O)(OCC)OCC
Marked response: 0

Exam item: Now the same for COc1ccc2c3c([nH]c2c1)[C@H]1C[C@H]2[C@H](C[C@@H](O)[C@H](OC)[C@H]2C(=O)O)CN1CC3 [Reserpinic acid hydrochloride]
Marked response: 0

Exam item: And CC(=O)c1c(C)c2cnc(Nc3ccc(N4CCNCC4)cn3)nc2n(C2CCCC2)c1=O ?
Marked response: 1

Exam item: Item: NS(=O)(=O)c1cc(C2(O)NC(=O)c3ccccc32)ccc1Cl (centres undefined)
Marked response: 0

Exam item: Also, CC(C[N+](C)(C)C)OC(N)=O (centres undefined) please.
Marked response: 0

Exam item: Now consider O=C1NN(c2ccc(F)c(Cl)c2)C(=O)/C1=C\c1ccc([N+](=O)[O-])o1 .
Marked response: 0

Exam item: How about this compound: CCCCCCCCCCCCCCCCCCc1ccc(C(=O)/C=C/C(=O)O)cc1
Marked response: 0

Exam item: Let us now turn to CN(C)/N=N/c1[nH]cnc1C(N)=O
Marked response: 0

Exam item: NC(=O)c1ccc(N(C(N)=O)c2c(F)cccc2F)nc1-c1ccc(F)cc1F , same question.
Marked response: 0

Exam item: Next entry: O=C(O)[C@H](O)[C@@H](O)[C@H](O[C@@H]1O[C@H](CO)[C@H](O)[C@H](O)[C@H]1O)[C@H](O)CO
Marked response: 0

Exam item: Would you mind doing O=c1cc(-c2ccccc2)oc2cc(O)cc(O)c12 as well?
Marked response: 0

Exam item: One more compound: CCCCCCCCCCCCCCCC(=O)C(F)(F)F
Marked response: 0

Exam item: What do you have for Cc1nc(NC(=O)N2CCC[C@H]2C(N)=O)sc1-c1ccnc(C(C)(C)C(F)(F)F)c1 ?
Marked response: 1

Exam item: Subsequent entry: NS(=O)(=O)c1cc2c(cc1C(F)(F)F)NC(Cc1ccccc1)NS2(=O)=O (centres undefined) [bendroflumethiazide]
Marked response: 0
